procedure_text: self-splicing fitness, log relative to wild type (ln ratio); higher = more splicing; Tetrahymena group I intron in knt gene, E. coli kanamycin selection, DiMSum; sequences stand for … in CUCUCU…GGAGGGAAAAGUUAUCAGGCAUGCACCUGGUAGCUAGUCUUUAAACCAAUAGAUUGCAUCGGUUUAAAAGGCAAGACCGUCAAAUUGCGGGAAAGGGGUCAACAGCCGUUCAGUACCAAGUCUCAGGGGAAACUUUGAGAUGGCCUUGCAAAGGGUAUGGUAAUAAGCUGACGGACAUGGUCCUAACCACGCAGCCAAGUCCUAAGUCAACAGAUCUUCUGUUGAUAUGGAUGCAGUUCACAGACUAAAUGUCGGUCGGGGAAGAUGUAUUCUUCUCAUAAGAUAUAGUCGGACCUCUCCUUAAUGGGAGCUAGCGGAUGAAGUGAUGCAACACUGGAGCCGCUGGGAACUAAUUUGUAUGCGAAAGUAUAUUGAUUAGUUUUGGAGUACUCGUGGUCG;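 note: selection with 25 µg/mL kanamycin versus none on LB agar overnight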
applied_conditions: 37 °C
observable: self-splicing fitness (ln)
Returns: the value as a bare number; no unit string appended.

Here is how some sequences turned out for self-splicing fitness (ln).
[
  {
    "sequence_entry": "UAUCAGCAAUAUUACGCUGC",
    "self-splicing fitness (ln)": -0.822
  },
  {
    "sequence_entry": "AGUAAGCAAUAUUACGGGCC",
    "self-splicing fitness (ln)": -0.26
  },
  {
    "sequence_entry": "GUAUAGCAAUAUUACGAUGC",
    "self-splicing fitness (ln)": -2.55
  }
]

// lookup self-splicing fitness (ln) for GGGGAGCAAUAUUACGCGAG
-0.692

* * *

procedure_text: self-splicing fitness, log relative to wild type (ln ratio); higher = more splicing; Tetrahymena group I intron in knt gene, E. coli kanamycin selection, DiMSum; sequences stand for … in CUCUCU…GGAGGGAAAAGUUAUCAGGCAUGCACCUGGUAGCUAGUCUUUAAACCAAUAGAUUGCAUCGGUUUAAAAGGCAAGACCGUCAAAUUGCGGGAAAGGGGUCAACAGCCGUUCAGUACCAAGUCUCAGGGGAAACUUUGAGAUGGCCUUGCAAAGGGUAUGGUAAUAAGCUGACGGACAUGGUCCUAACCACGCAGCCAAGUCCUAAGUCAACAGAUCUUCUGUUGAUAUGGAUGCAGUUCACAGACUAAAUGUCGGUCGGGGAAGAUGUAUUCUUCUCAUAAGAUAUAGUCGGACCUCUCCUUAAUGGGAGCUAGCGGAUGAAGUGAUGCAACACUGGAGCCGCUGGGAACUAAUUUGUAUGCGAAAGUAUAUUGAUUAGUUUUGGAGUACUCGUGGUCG
applied_conditions: 37 °C
observable: self-splicing fitness (ln)

[
  {
    "sequence_entry": "AUUCAGCAAUAUUACGGUGU",
    "self-splicing fitness (ln)": -0.106
  },
  {
    "sequence_entry": "GCACAGCAAUAUUACGAUUA",
    "self-splicing fitness (ln)": -0.549
  }
]

// returns reported self-splicing fitness (ln) for input GCCCAGCAAUAUUACGUGCC
-3.18

Same again, this time with CGUAAGCAAUAUUACGCUAG
-0.429

Would you kindly repeat that for UGGCAGCAAUAUUACGGUCC ?
0.88

Same thing, different sequence: AGUAAGCAAUAUUACGAGAG
-2.49

* * *

procedure_text: self-splicing fitness, log relative to wild type (ln ratio); higher = more splicing; Tetrahymena group I intron in knt gene, E. coli kanamycin selection, DiMSum; sequences stand for … in CUCUCU…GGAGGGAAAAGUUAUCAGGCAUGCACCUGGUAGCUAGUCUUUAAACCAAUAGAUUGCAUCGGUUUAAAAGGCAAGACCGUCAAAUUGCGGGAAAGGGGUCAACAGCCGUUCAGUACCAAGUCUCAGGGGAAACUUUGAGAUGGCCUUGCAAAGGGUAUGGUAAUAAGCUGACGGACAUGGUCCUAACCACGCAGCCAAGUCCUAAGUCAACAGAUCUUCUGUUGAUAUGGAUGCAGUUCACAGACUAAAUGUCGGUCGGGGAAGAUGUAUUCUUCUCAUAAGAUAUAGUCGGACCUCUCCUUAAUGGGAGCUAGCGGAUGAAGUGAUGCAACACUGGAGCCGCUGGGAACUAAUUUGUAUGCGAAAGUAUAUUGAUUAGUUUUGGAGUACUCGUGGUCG
applied_conditions: 37 °C
self-splicing fitness (ln) vs -1: at or above is fulfilled, below is not fulfilled.

[
  {
    "sequence_entry": "UUAAAGCAAUAUUACGAGAU",
    "assigned_category": "not fulfilled"
  }
]

Please tell me: is the sequence UCCAAGCAAUAUUACGAUCG at or over -1 in terms of self-splicing fitness (ln)?
not fulfilled

Entry to check: AGUUAGCAAUAUUACGUGUA
fulfilled

Same question for AUAUAGCAAUAUUACGGGAA please.
not fulfilled

Same question, GCACAGCAAUAUUACGCCAC this time
not fulfilled

Moving on to the next sequence: UACUAGCAAUAUUACGACCU
fulfilled

Follow-up entry: CUCUAGCAAUAUUACGAUCG
fulfilled

Entry to check: AUCAAGCAAUAUUACGAUAU
fulfilled

Again, but for CAUUAGCAAUAUUACGGAAU
not fulfilled

* * *

procedure_text: self-splicing fitness, log relative to wild type (ln ratio); higher = more splicing; Tetrahymena group I intron in knt gene, E. coli kanamycin selection, DiMSum; sequences stand for … in CUCUCU…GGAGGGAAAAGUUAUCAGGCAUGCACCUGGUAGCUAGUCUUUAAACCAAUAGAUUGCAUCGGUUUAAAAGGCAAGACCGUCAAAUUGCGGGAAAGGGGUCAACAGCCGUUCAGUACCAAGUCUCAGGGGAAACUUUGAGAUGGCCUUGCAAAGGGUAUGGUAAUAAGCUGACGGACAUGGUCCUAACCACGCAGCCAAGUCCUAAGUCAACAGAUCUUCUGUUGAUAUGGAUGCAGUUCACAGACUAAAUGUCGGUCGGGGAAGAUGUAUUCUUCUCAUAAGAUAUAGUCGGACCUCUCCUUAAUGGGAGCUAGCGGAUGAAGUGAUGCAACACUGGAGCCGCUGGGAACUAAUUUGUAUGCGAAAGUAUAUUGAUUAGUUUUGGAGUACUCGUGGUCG
applied_conditions: 30 °C
Catalogue of self-splicing fitness (ln) values
Write no unit; give the number alone.

Example entries begin here.
[
  {
    "sequence_entry": "GCAGAGCAAUAUUACGAUUU",
    "observable": "self-splicing fitness (ln)",
    "val": -2.51
  },
  {
    "sequence_entry": "GUCCAGCAAUAUUACGGCUC",
    "observable": "self-splicing fitness (ln)",
    "val": -0.432
  },
  {
    "sequence_entry": "AGGCAGCAAUAUUACGAGGG",
    "observable": "self-splicing fitness (ln)",
    "val": -2.52
  },
  {
    "sequence_entry": "GUUCAGCAAUAUUACGUAAU",
    "observable": "self-splicing fitness (ln)",
    "val": 0.434
  },
  {
    "sequence_entry": "CCCAAGCAAUAUUACGCGUU",
    "observable": "self-splicing fitness (ln)",
    "val": -4.28
  },
  {
    "sequence_entry": "GAACAGCAAUAUUACGGCGA",
    "observable": "self-splicing fitness (ln)",
    "val": -1.38
  },
  {
    "sequence_entry": "AAUUAGCAAUAUUACGCAUC",
    "observable": "self-splicing fitness (ln)",
    "val": -2.79
  },
  {
    "sequence_entry": "UAAUAGCAAUAUUACGUGUU",
    "observable": "self-splicing fitness (ln)",
    "val": -1.68
  },
  {
    "sequence_entry": "UUGGAGCAAUAUUACGCUAG",
    "observable": "self-splicing fitness (ln)",
    "val": -2.56
  },
  {
    "sequence_entry": "UAUAAGCAAUAUUACGCCAA",
    "observable": "self-splicing fitness (ln)",
    "val": -1.14
  }
]

Recorded self-splicing fitness (ln) for CGCUAGCAAUAUUACGGAGG , please?
-1.78

Ok, now GCUUAGCAAUAUUACGUUUU
-1.68

Can you handle GCAUAGCAAUAUUACGACUA next?
-0.161

Here is the next sequence: GCAUAGCAAUAUUACGCAUA
-2.29

* * *

procedure_text: self-splicing fitness, log relative to wild type (ln ratio); higher = more splicing; Tetrahymena group I intron in knt gene, E. coli kanamycin selection, DiMSum; sequences stand for … in CUCUCU…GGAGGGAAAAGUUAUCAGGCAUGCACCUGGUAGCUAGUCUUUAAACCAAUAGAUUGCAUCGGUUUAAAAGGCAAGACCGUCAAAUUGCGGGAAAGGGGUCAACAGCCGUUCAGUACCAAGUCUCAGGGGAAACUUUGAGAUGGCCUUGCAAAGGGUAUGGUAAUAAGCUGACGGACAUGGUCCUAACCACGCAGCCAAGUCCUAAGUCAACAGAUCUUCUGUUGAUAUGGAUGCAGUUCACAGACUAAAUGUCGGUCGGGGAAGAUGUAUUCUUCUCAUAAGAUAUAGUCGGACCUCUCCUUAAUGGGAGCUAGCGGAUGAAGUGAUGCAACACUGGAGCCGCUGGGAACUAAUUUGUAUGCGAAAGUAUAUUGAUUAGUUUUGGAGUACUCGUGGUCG
applied_conditions: 30 °C
observable: self-splicing fitness (ln)
The response must contain the number and no unit.

[
  {
    "sequence_entry": "UUCAAGCAAUAUUACGAACU",
    "self-splicing fitness (ln)": -2.74
  },
  {
    "sequence_entry": "CCGUAGCAAUAUUACGAACG",
    "self-splicing fitness (ln)": -1.07
  },
  {
    "sequence_entry": "CCUGAGCAAUAUUACGCCAA",
    "self-splicing fitness (ln)": -2.85
  },
  {
    "sequence_entry": "GGCUAGCAAUAUUACGUAGU",
    "self-splicing fitness (ln)": -3.29
  },
  {
    "sequence_entry": "UUCCAGCAAUAUUACGUCGC",
    "self-splicing fitness (ln)": -1.69
  },
  {
    "sequence_entry": "CCCUAGCAAUAUUACGGGGG",
    "self-splicing fitness (ln)": -3.85
  },
  {
    "sequence_entry": "CACCAGCAAUAUUACGUCUA",
    "self-splicing fitness (ln)": -2.84
  },
  {
    "sequence_entry": "ACCCAGCAAUAUUACGUAUA",
    "self-splicing fitness (ln)": -2.2
  }
]

Which self-splicing fitness (ln) value belongs to UCACAGCAAUAUUACGAUUC ?
-3.61

Cited source: the supplement of paper PMC7877785
